# EXPERIMENTAL PARAMETERS: in water, 283.15 K
MEASUREMENT NAME: solubility (mole fraction)
Answers are plain numbers.

# lookup: solubility (mole fraction) of COC(=O)C1=C(C)NC(C)=C(C(=O)OCC(C)C)C1c1ccccc1[N+](=O)[O-] (stereo unspecified)
5e-06

* * *

# EXPERIMENTAL PARAMETERS: in toluene, 283.15 K
MEASUREMENT NAME: solubility (mole fraction)
One number for each entry.

# lookup: solubility (mole fraction) of COC(=O)C1=C(C)NC(C)=C(C(=O)OCC(C)C)C1c1ccccc1[N+](=O)[O-] (stereo unspecified)
0.00183

The measured values listed here are drawn from BigSolDB 2.1.
